Where these numbers come from: patent US20120264685A1

biological target: human GLP-1 receptor (human, UniProt P43220 24-463); test: cell-based or functional assay
Where no end group is shown, it is not given here. [ ]: non-standard residue; d: D form. Bip(2'-Et-4'-OMe) = CCc1cc(OC)ccc1-c1ccc(C[C@H](N)C(=O)O)cc1; αMePhe(2,6-F2) = C[C@](N)(Cc1c(F)cccc1F)C(=O)O; αMePhe(2-F) = C[C@](N)(Cc1ccccc1F)C(=O)O; αMeBip(OMe) = alpha-methylated Bip(OMe); hhPhe = N[C@@H](CCCc1ccccc1)C(=O)O; αMeD = C[C@](N)(CC(=O)O)C(=O)O; αMeP = C[C@@]1(C(=O)O)CCCN1; αMeAPPA = not defined here; αMeS = C[C@](N)(CO)C(=O)O; Aib = CC(C)(N)C(=O)O
MEASUREMENT TYPE: cAMP release, % activity with respect to control, at 1 nM

Below, each entry is followed by its recorded cAMP release, % activity with respect to control, at 1 nM result.
* VHAQGTFT[αMeS]D[αMeBip(OMe)][hhPhe]-NH2 [Seq. ID. No. 34] | 99 % of control
* VH[Aib]QGTFTSD[αMeBip(OMe)][hhPhe]-NH2 [Seq. ID. No. 7] | 55 % of control
* VHSQGT[αMePhe(2,6-F2)]TSD[Bip(2'-Et-4'-OMe)][αMeAPPA] (not fully specified (C-terminus); printed as VHSQGT-(αMe-2,6-diF-Phe)-TSD-Bip(OMe)-(αMe-APPA); reading uncertain) [Seq. ID. No. 99] | 99 % of control
* VH[αMeP]EGT[αMePhe(2-F)]T[αMeS]D[αMeBip(OMe)][αMeAPPA] (not fully specified (C-terminus); reading uncertain) [Seq. ID. No. 172] | 60 % of control
* VH[Aib]EGTFTS[αMeD][αMeBip(OMe)][αMeAPPA] (not fully specified (C-terminus); printed as VH-Aib-EGTFTS-(αMe-Asp)-(αMe-Bip(OMe))-(αMe-APPA); reading uncertain) [Seq. ID. No. 187] | 96 % of control
* VHAQGT[αMePhe(2,6-F2)]TSD[αMeBip(OMe)][hhPhe]-NH2 [Seq. ID. No. 26] | 99 % of control
* VVHAEGT[αMePhe(2-F)]TSD[αMeBip(OMe)][hhPhe]-NH2 [Seq. ID. No. 218] | 40 % of control
* VHSQGT[αMePhe(2,6-F2)]TSD[αMeBip(OMe)][αMeAPPA] (not fully specified (C-terminus); printed as VHSQGT-(αMe-2,6-diF-Phe)-TSD-(αMe-Bip(OMe))-(αMe-APPA); reading uncertain) [Seq. ID. No. 149] | 38 % of control

Exercise: Which cAMP release, % activity with respect to control, at 1 nM value belongs to VH[αMeP]QGTFTSD[Bip(2'-Et-4'-OMe)][αMeAPPA] (not fully specified (C-terminus); printed as VH-(αMe-Pro)-QGTFTSD-Bip(OMe)-(αMe-APPA); reading uncertain) [Seq. ID. No. 84] ?
Solution: 40 % of control

Exercise: Which cAMP release, % activity with respect to control, at 1 nM value belongs to VHSEGT[αMePhe(2-F)]TSD[αMeBip(OMe)][αMeAPPA] (not fully specified (C-terminus); printed as VHSEGT-(αMe-2FPhe)-TSD-(αMe-Bip(OMe))-(αMe-APPA); reading uncertain) [Seq. ID. No. 145] ?
Solution: 78 % of control

Exercise: Which cAMP release, % activity with respect to control, at 1 nM value belongs to VH[Aib]EGTFTSD[αMeBip(OMe)][αMeAPPA] (not fully specified (C-terminus); printed as VH-Aib-EGTFTSD-(αMe-Bip(OMe))-(αMe-APPA); reading uncertain) [Seq. ID. No. 139] ?
Solution: 55 % of control
